Kindly supply the reported growth values for the records listed here.
Tested on: NCI-H460 lung
Assay: NCI-60 one-dose screen, 48 h (100 = growth as untreated, 0 = no growth, -100 = all killed)
Settings: 10 µM unless noted
This is part of a sample that, as a whole, favours compounds with a hit. Of some 83,000 tested, about 20% had one in any assay.
Express it in %; write the number only.

Would you mind telling me what growth value was observed for "CC1(C)OC(=O)C(=Cc2cccc(Br)c2)C(=O)O1" ?
105

Then what about the compound C[Se]C(=O)CC1=C2C=C(F)C=CC2/C(=C\c2ccc(S(C)=O)cc2)C1C (configuration not stated) ?
-1

Then what about the compound "CCN(CC)c1ccc(/C=N/NC(=O)c2ccc(Nc3ccnc(C(F)(F)F)c3)cc2)c(O)c1" ?
-4.66

Then what about the compound O=C1CC2C=CCN2C=C1NC(=O)C1CCCCC1 (configuration not stated) ?
112

Then what about the compound "COc1cc2c(cc1O)[C@@]1(C)[C@H](c3ccccc3Br)OC(=O)N1CC2" ?
96.5

Then what about the compound "Nc1ccc([N+](=O)[O-])cc1N=C/C=C/c1ccccc1" ?
54

Then what about the compound "CCOc1ccc(NC(=O)c2cc(OC)c(OC)c(OC)c2)cc1" ?
17.1

====

Test system: CCRF-CEM leukemia
Assay: NCI-60 one-dose screen, 48 h
Conditions: 10 µM unless noted
Compounds without any hit were thinned out: in the full panel of roughly 83,000, 20% have a hit. Activity calls are given as the source filed them. How the source made its calls: active means growth percent below 10; inactive means the rest.
Allowed answers: 1 (yes) for active, 0 (no) for inactive

Test call for this molecule, please: "O=C(CCCCCCCCC(=O)N/N=C\c1cc(Cl)ccc1O)N/N=C\c1cc(Cl)ccc1O"
0 (no)

Then what about the molecule "CC(C)CSc1oc(-c2ccccc2)nc1S(=O)(=O)c1ccccc1" ?
0 (no)

Then what about the molecule "COc1cc(Nc2c3ccc(Cl)cc3nc3ccc(OC)cc23)c2ncccc2c1" ?
0 (no)

Then what about the molecule "O=C(CCCCCCN1CC(=O)N2[C@@H](c3ccc(Cl)cc3)c3[nH]c4ccccc4c3C[C@H]2C1=O)NO" ?
0 (no)

Then what about the molecule "O=c1nc(Nc2nc3ccccc3s2)[nH]c(=O)c2ccccc12" ?
0 (no)

Then what about the molecule "CN1CCN(Cc2cc(NC(=O)c3cccc(C#Cc4cccc5[nH]nc(N)c45)c3)cc(C(F)(F)F)c2)CC1" ?
1 (yes)

Then what about the molecule "COc1ccc(-c2ccc(-c3ccc(C(=N)N)cn3)s2)cc1" ?
1 (yes)

Then what about the molecule Cc1c(N2CN3C[C@H](C)N4CN(c5c(C)n(C)n(-c6ccccc6)c5=O)CN5C[C@@H](C)N(C2)C3C54)c(=O)n(-c2ccccc2)n1C (some centres undefined) ?
0 (no)

Then what about the molecule "NC(=O)c1ccc(NC(=O)c2oc3ccccc3c2-c2cnn(-c3ccccc3)c2)cc1" ?
0 (no)

Then what about the molecule "N#C/C(=C\c1ccc(Cl)cc1Cl)C(=O)Nc1ncc(Cc2ccc(Cl)c(Cl)c2)s1" ?
0 (no)

Then what about the molecule "CN1CCN(c2ccc(NC(=O)c3cncnc3Nc3ccc4c(ccn4Cc4cccc(F)c4)c3)cc2)CC1" ?
0 (no)

Then what about the molecule "CN1CCN(Cc2ccc(NC(=O)c3cncc(C#Cc4cnn5ccccc45)c3)cc2C(F)(F)F)CC1" ?
1 (yes)

Then what about the molecule "CN(C)Cc1ccc(C(=O)Nc2ccc3ncnc(Nc4ccc(Oc5cccc(F)c5)c(Cl)c4)c3c2)cc1" ?
1 (yes)

Then what about the molecule "COc1ccc(Cc2cnc(NC(=O)c3sc4ccccc4c3Cl)s2)cc1" ?
0 (no)

Then what about the molecule "C=C1C(=O)O[C@H]2[C@H]1CC/C(COC(=O)c1cc3cc(F)ccc3[nH]1)=C\CC[C@@]1(C)O[C@@H]21" ?
1 (yes)

Then what about the molecule "CCOC(=O)c1c(NC(=O)c2ccc(OC)cc2)sc2c(CN(C)C)c(O)ccc12" ?
0 (no)

Then what about the molecule "Cc1nn(-c2ccccc2)c(N2CCCCC2)c1/C=N/NC(=O)Cn1c(=O)sc2ccccc21" ?
0 (no)

Then what about the molecule "COc1ccc(Nc2ncccc2NC(=O)c2cn(Cc3cccc(Oc4ccccc4)c3)nn2)cc1OC" ?
0 (no)

Then what about the molecule "COc1ccc(/C=C/C(=O)c2cc3c(N)c(C(=O)Nc4ccc(OC)cc4)sc3nc2C)cc1" ?
0 (no)

Then what about the molecule "CNCc1cccc2c1OCCOCCN(C)C(=O)CN(C)S(=O)(=O)c1ccc(cc1)-c1cnc(N)c(n1)C(=O)N2" ?
1 (yes)

Then what about the molecule CC(CN)[C@@H]1CC[C@]2(CO)CC[C@]3(C)[C@H](CC[C@@H]4[C@@]5(C)CCC(N)C(C)(C)[C@@H]5CC[C@]43C)[C@@H]12 (some centres undefined) ?
1 (yes)

Then what about the molecule CC1(C)C2CC=C(/C=N/NC(=O)C3CCC(=O)N3)C1C2 (centres undefined) ?
0 (no)

Then what about the molecule "Cn1cc(-c2csc(-c3cn(C)c4ccc(Br)cc34)n2)c2cnccc21" ?
1 (yes)

Then what about the molecule "Nc1nc(C(=O)N/N=C/c2ccc(N3CCOCC3)cc2)nn1-c1ccc(S(N)(=O)=O)cc1" ?
0 (no)
